Ref: PubChem BioAssay (NCI)

assay: NCI Yeast Anticancer Drug Screen. Data for the cln2 rad14 strain (AID 165); details: S. cerevisiae cln2 rad14 strain, at 50.0 µM, hits give high values
The panel holds about 79,000 compounds, 15% with a hit somewhere; the sample as a whole holds those more often.
growth inhibition below 80% gives condition not met; growth inhibition at or above it gives condition met.

compound: c1ccc(C2NCCNC2c2ccccc2)cc1 (stereo unspecified)
class assignment: condition not met
//
compound: CCOc1cc2c(cc1O)/C(=N\OC)C[C@@H]1[C@@H]2CC[C@]2(C)[C@@H](O)CC[C@@H]12
class assignment: condition not met
//
compound: Cc1nn(CCO)c(C)c1N=[N+]([O-])c1c(C)nn(CCO)c1C
class assignment: condition met
//
compound: NC(CS/C(Cl)=C/Cl)C(=O)O (stereo unspecified)
class assignment: condition met
//
compound: CCCCCCCCCCCC1=NCCCN1CCCC
class assignment: condition not met
//
compound: C=c1c2ccccc2oc2nc3[nH]c(N)c(C#N)c(N)c3c(=N)c12
class assignment: condition not met
//
compound: CC12CCC(O)CC1=CCC1C2CCC2(C)C3=NN=CC3CC12 (stereo unspecified)
class assignment: condition met
//
compound: C[C@@H]1CCC([C@@H](C)[C@H]2CC[C@H]3[C@@H]4CC[C@H]5C[C@@H](O)CC[C@]5(C)[C@H]4CC[C@]23C)=NC1
class assignment: condition met
//
compound: CN(C)c1ccc(C(C#N)(c2ccccc2)c2ccc(N(C)C)cc2)cc1
class assignment: condition not met
//
compound: CC(C)N=C(N)/N=C(\N)Nc1ccc2ccc3ccccc3c2c1
class assignment: condition met
